Catalogue of compounds with associated pIC50
# TARGET UNDER TEST: KCNT1 (KNa1.1, Slack) (Homo sapiens, UniProt Q5JUK3)
# PROTOCOL DETAILS: KCNT1-WT-Basal patch clamp assay (SyncroPatch 384PE, HEK-TREX inducible cell line)
# MEASUREMENT CONTEXT: tetracycline inducible HEK-TREX cells; perforated patch; holding -80 mV, 100 ms step to 0 mV; room temperature; read-out: KCNT1 WB IC50
pIC50: −log10 of the molar value.

In the examples that follow, each entry is paired with its recorded pIC50.
The compound "CNS(=O)(=O)Nc1ccc(C(=O)N[C@@H]2CCc3cc(Cl)ccc32)cc1" , tested on KCNT1 (KNa1.1, Slack) (Homo sapiens, UniProt Q5JUK3), showed pIC50 of ≥ 6.00

The compound CS(=O)(=O)Nc1ccc(C(=O)NC2CCCc3cc(Cl)ccc32)cc1 (single isomer, unassigned) [Compound II-53] , tested on KCNT1 (KNa1.1, Slack) (Homo sapiens, UniProt Q5JUK3), showed pIC50 of ≥ 6.00

The compound "NC(=O)c1ccc(C(=O)N[C@@H]2CCc3cc(Cl)ccc32)s1" , tested on KCNT1 (KNa1.1, Slack) (Homo sapiens, UniProt Q5JUK3), showed pIC50 of ≥ 6.00

We now examine a further compound.
The compound "CCS(=O)(=O)N(C)c1ccc(C(=O)N[C@H]2CCc3cc(Cl)ccc32)cc1" , tested on KCNT1 (KNa1.1, Slack) (Homo sapiens, UniProt Q5JUK3), showed pIC50 of 4.70 to 6.00

---

Catalogue of molecules with associated pIC50
# TARGET UNDER TEST: KCNT1 (KNa1.1, Slack) (Homo sapiens, UniProt Q5JUK3)
# PROTOCOL DETAILS: KCNT1-WT-Basal patch clamp assay (SyncroPatch 384PE, HEK-TREX inducible cell line)
# MEASUREMENT CONTEXT: tetracycline inducible HEK-TREX cells; perforated patch; holding -80 mV, 100 ms step to 0 mV; room temperature; read-out: KCNT1 WB IC50
# Experimental: KCNT1-WT-Basal—Patch Clamp Assay Inhibition of KCNT1 (KNa1.1, Slack) was evaluated using a tetracycline inducible cell line (HEK-TREX). Currents were recorded using the SyncroPatch 384PE automated, patch clamp system. […] Current were recorded in perforated patch mode (10 μM escin) from a population of cells. […] Currents were recorded at room temperature. […] Mean current was measured during the step to 0 mV. […]
pIC50: −log10 of the molar value.

Sample "Cc1oc(S(N)(=O)=O)cc1C(=O)N[C@@H]1CCc2cc(Cl)ccc21" ; pIC50 observed: ≤ 4.70

Sample "CNS(=O)(=O)c1ccc(C(=O)N[C@@H]2CCc3cc(Cl)ccc32)cc1" ; pIC50 observed: ≥ 6.00

Sample "CN(C)Cc1ccc(C(=O)N[C@@H]2CCc3cc(Cl)ccc32)s1" ; pIC50 observed: 4.70 to 6.00

We now examine a further molecule.
Sample CNS(=O)(=O)c1ccc(C(=O)N[C@H]2CCCc3cc(Cl)ccc32)s1 (single isomer, unassigned) ; pIC50 observed: ≥ 6.00

---

# TARGET UNDER TEST: KCNT1 (KNa1.1, Slack) (Homo sapiens, UniProt Q5JUK3)
# Sequence (Q5JUK3 1-1230): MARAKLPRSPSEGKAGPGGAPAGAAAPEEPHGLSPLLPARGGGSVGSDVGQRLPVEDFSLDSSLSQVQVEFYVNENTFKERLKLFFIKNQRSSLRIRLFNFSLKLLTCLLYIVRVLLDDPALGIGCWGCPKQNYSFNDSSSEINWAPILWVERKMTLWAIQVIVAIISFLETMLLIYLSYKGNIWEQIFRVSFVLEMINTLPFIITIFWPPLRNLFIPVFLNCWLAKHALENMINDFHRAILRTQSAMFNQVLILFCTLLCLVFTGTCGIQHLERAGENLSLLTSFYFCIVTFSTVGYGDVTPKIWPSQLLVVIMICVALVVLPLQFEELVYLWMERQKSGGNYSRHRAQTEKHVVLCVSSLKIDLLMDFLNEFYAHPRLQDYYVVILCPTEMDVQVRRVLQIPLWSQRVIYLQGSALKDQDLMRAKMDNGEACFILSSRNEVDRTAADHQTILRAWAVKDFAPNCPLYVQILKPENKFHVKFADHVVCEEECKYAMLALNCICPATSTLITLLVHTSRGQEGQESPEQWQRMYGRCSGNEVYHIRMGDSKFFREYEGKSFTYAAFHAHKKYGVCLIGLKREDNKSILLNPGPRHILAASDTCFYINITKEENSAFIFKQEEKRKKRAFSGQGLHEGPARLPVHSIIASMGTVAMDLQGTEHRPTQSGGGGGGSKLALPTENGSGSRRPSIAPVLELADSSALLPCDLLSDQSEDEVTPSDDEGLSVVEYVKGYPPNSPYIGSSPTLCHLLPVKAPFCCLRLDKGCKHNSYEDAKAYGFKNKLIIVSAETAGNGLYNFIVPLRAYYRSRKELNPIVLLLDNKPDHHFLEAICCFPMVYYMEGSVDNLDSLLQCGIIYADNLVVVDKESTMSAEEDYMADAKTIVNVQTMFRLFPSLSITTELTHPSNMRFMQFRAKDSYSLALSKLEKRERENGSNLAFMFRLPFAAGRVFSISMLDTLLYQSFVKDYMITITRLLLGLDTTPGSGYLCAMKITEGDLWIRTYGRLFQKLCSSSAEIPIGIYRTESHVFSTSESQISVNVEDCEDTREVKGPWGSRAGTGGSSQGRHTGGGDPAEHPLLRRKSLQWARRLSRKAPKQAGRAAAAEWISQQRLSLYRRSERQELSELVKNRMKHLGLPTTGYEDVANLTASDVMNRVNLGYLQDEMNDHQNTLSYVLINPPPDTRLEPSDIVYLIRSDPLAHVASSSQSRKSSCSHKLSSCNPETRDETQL
# PROTOCOL DETAILS: KCNT1-WT-Basal patch clamp assay (SyncroPatch 384PE, HEK-TREX inducible cell line)
# MEASUREMENT CONTEXT: tetracycline inducible HEK-TREX cells; perforated patch; holding -80 mV, 100 ms step to 0 mV; room temperature; read-out: KCNT1 WB IC50
MEASUREMENT LABEL: IC50

In the examples that follow, each entry is paired with its recorded IC50.
Sample "Cc1cc(S(N)(=O)=O)oc1C(=O)N[C@@H]1CCc2cc(Cl)ccc21" ; IC50 observed: ≥ 20000 nM

Sample "NS(=O)(=O)c1cc(C(=O)N[C@@H]2CCc3cc(Cl)ccc32)cs1" ; IC50 observed: ≤ 1000 nM

Sample NS(=O)(=O)c1ccc(C(=O)N[C@@H]2CCCc3cc(Cl)ccc32)s1 (single isomer, unassigned) ; IC50 observed: ≥ 20000 nM

More entries:
Sample "O=C(N[C@@H]1CCc2cc(Cl)ccc21)c1ccc(S(=O)(=O)N2CCOCC2)s1" ; IC50 observed: ≤ 1000 nM

Sample "NS(=O)(=O)Nc1ccc(C(=O)N[C@@H]2CCc3cc(Cl)ccc32)cc1" ; IC50 observed: 1000 to 20000 nM

Sample "CCS(=O)(=O)c1ccc(C(=O)N[C@@H]2CCc3cc(Cl)ccc32)cc1" ; IC50 observed: ≤ 1000 nM

Sample "O=C(N[C@@H]1CCc2cc(Cl)ccc21)c1ccc(S(=O)(=O)N2CCC2)s1" ; IC50 observed: ≤ 1000 nM

Sample "Cn1cc(S(N)(=O)=O)cc1C(=O)N[C@@H]1CCc2cc(Cl)ccc21" ; IC50 observed: ≥ 20000 nM

Sample "O=C(N[C@H]1CCc2cc(Cl)ccc21)c1ccc(NS(=O)(=O)C(F)(F)F)cc1" ; IC50 observed: ≥ 20000 nM

Sample "CS(=O)(=O)c1ccc(C(=O)N[C@@H]2CCc3cc(Cl)ccc32)c(F)c1" ; IC50 observed: 1000 to 20000 nM

Sample "NS(=O)(=O)c1ccc(C(=O)N[C@@H]2CCc3cc(Cl)ccc32)s1" ; IC50 observed: ≤ 1000 nM

Sample "CNC(=O)c1ccc(C(=O)N[C@@H]2CCc3cc(Cl)ccc32)s1" ; IC50 observed: ≤ 1000 nM

Sample "Cn1nc(C(F)(F)F)cc1C(=O)N[C@@H]1CCc2cc(Cl)ccc21" ; IC50 observed: ≤ 1000 nM

Sample "O=C(N[C@@H]1CCc2cc(Cl)ccc21)c1ccc(S(=O)(=O)N2CC[C@@H](O)C2)s1" ; IC50 observed: ≤ 1000 nM

Sample "CS(=O)(=O)c1ccc(C(=O)N[C@@H]2CCc3cc(Cl)ccc32)cc1F" ; IC50 observed: ≤ 1000 nM

Sample "CN(C)S(=O)(=O)Nc1ccc(C(=O)N[C@@H]2CCc3cc(Cl)ccc32)cc1" ; IC50 observed: 1000 to 20000 nM

Sample "COCCS(=O)(=O)c1ccc(C(=O)N[C@@H]2CCc3cc(Cl)ccc32)cc1" ; IC50 observed: 1000 to 20000 nM
